testDescription: Half life in rat at 1 mg/kg
Type: ADME, organism-based
reportedConditions: in vivo
measuredProperty: half-life (h)
Provide only the numeric value, understood in h.

For record Cn1cnc2ncn(Cc3nn(C[C@H](F)c4ccc(Cl)cc4)c(=O)o3)c(=O)c21 the listed half-life is 1.4

Entry Cn1cnc2ncn(Cc3nc([C@H]4[C@@H]5CN(c6cc(Cl)ccn6)C[C@@H]54)no3)c(=O)c21 — recorded half-life = 1.8

// half-life lookup, compound = Cc1cnn2ncn(Cc3nc([C@H]4[C@@H]5CN(c6cccc(Cl)c6)C[C@@H]54)no3)c(=O)c12 , result: 2.5

GET /value?item= Cn1cnc2ncn(Cc3nc([C@@H]4CO[C@@H](c5ccc(Cl)cc5)C4)no3)c(=O)c21 &field=half-life returns 1.6

For the next question, use this compound.
Briefly, half-life measured for Cn1cnc2ncn(Cc3nc([C@H]4[C@@H]5CN(c6cccc(Cl)c6)C[C@@H]54)no3)c(=O)c21 : 6.4

* * *

testDescription: Protein binding in human plasma
Format: ADME, cell-free
reportedConditions: read-out: PPB (converted)
Decision: fraction unbound >= 0.07 yields true, all other cases yield false.

Worked examples, 3 compounds total:
Inquiry: Confirm if fraction unbound reported for the compound Cn1cnc2ncn(Cc3nc([C@@H]4CO[C@@H](c5ccc(Cl)cc5)C4)no3)c(=O)c21 is 0.07 or above.
Reply text: true

Inquiry: Check the entry Cn1cnc2ncn(Cc3nc([C@H]4[C@@H]5CN(c6cccc(Cl)c6)C[C@@H]54)no3)c(=O)c21 : does fraction unbound equal or exceed 0.07?
Reply text: false

Inquiry: // inclusive: fraction unbound at least 0.07? input: Cc1cnn2ncn(Cc3nc([C@H]4[C@@H]5CN(c6cccc(Cl)c6)C[C@@H]54)no3)c(=O)c12
Reply text: false

Now look at this entry.
Inquiry: Determine whether measured fraction unbound meets or exceeds 0.07 for Cn1cnc2ncn(Cc3nn(C[C@H](F)c4ccc(Cl)cc4)c(=O)o3)c(=O)c21
Reply text: true

* * *

Each entry below carries its recorded CLhep predicted.
testDescription: Metabolic stability in rat liver microsomes assessed as clearance by LC/MS-MS analysis
Type: ADME, Microsome

Here is how some compounds turned out for CLhep predicted.
response.value for Cn1cnc2ncn(Cc3nn([C@@H]4CC[C@@H](Oc5cccc(F)c5)C4)c(=O)o3)c(=O)c21 (field: CLhep predicted) = 1.44 L/h/kg

Measured CLhep predicted of Cn1cnc2ncn(Cc3nn([C@H]4C[C@H](Oc5cccc(Cl)c5)C4)c(=O)o3)c(=O)c21 : 0.66 L/h/kg

CLhep predicted measured on Cn1cnc2ncn(Cc3nc([C@@H]4CO[C@@H](c5ccc(Cl)cc5)C4)no3)c(=O)c21 = 0.84 L/h/kg

Here is another compound to look at.
Notebook: Cn1cnc2ncn(Cc3nn([C@H]4CC[C@H](c5ccc(Cl)cc5)CC4)c(=O)o3)c(=O)c21 , CLhep predicted read as 1.14 L/h/kg

* * *

testDescription: Lipophilicity, logD of compound
Type: physicochemical
reportedConditions: octanol/water
Short version: logD at least 2 is yes (1), less is no (0).

Solved cases (3 shown):
Inquiry: Kindly determine if logD recorded for Cn1cnc2ncn(Cc3nc([C@H]4[C@@H]5CN(c6cc(Cl)ccn6)C[C@@H]54)no3)c(=O)c21 is above or exactly 2.
Reply text: no (0)

Inquiry: Quick check, logD >= 2? Cn1cnc2ncn(Cc3nn(C[C@H](F)c4ccc(Cl)cc4)c(=O)o3)c(=O)c21
Reply text: no (0)

Inquiry: Dear colleague, could you confirm whether O=c1c2cccnc2cnn1Cc1nc([C@H]2[C@@H]3CN(c4cc(Cl)ccn4)C[C@@H]32)no1 has logD at or above 2?
Reply text: yes (1)

New cases:
Inquiry: Reported logD at or above 2? Cn1cnc2ncn(Cc3nc([C@@H]4CO[C@@H](c5ccc(Cl)cc5)C4)no3)c(=O)c21
Reply text: no (0)

Inquiry: Check this molecule for logD at or above 2: O=c1c2cccnc2ncn1Cc1nc([C@H]2[C@@H]3CN(c4cc(Cl)ccn4)C[C@@H]32)no1
Reply text: yes (1)

Inquiry: Could you verify whether the entry Cn1cnc2ncn(Cc3nc(CCc4ccc(Cl)cc4)no3)c(=O)c21 shows logD of no less than 2?
Reply text: no (0)

Inquiry: logD >= 2 for Cn1cnc2ncn(Cc3nn([C@@H]4CC[C@@H](c5ccc(Cl)cc5)C4)c(=O)o3)c(=O)c21 ?
Reply text: yes (1)

Inquiry: Hello, I need to know if Cn1cnc2ncn(Cc3nn([C@H]4C[C@H](Oc5cccc(Cl)c5)C4)c(=O)o3)c(=O)c21 has measured logD not below 2. Thanks!
Reply text: yes (1)

Inquiry: Confirm if logD reported for the molecule Cn1cnc2ncn(Cc3nn([C@@H]4CC[C@@H](Oc5cccc(F)c5)C4)c(=O)o3)c(=O)c21 is 2 or above.
Reply text: no (0)

Inquiry: Has Cn1cnc2ncn(Cc3nn(CCOc4cccc(Cl)c4)c(=O)o3)c(=O)c21 a recorded logD greater than or equal to 2?
Reply text: no (0)

Data origin: ChEMBL document CHEMBL5055619
